Biological target: UniProtKB P32298
Sequence (P32298 whole entry, looked up): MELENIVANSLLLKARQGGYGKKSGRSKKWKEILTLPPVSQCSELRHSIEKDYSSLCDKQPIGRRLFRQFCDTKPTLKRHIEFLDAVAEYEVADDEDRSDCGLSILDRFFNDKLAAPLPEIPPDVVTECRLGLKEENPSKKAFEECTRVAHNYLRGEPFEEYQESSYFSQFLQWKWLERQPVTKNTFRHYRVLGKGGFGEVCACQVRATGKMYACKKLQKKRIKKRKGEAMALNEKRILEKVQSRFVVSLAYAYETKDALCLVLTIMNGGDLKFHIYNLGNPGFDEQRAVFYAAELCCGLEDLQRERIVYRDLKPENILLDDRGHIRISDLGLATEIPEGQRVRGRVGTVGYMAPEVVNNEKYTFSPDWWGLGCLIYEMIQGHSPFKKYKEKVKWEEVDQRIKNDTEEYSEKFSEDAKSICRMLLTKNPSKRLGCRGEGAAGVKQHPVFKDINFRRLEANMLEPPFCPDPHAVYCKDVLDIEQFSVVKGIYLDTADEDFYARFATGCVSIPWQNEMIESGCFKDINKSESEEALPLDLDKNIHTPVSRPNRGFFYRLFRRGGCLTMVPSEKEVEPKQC
Experiment: radiometric filter-binding kinase assay, Kinase HotSpot
Details: compound 0.5 µM; ATP 10 µM
residual activity values for the compounds below.

smiles	assayed.system	unit.of.measure	residual activity
CN(C)S(=O)(=O)c1ccc2c(c1)/C(=C/c1cc3c([nH]1)CCCC3)C(=O)N2	UniProtKB P32298	%	79.8
COc1cc(Nc2c(C#N)cnc3cc(OCCCN4CCN(C)CC4)c(OC)cc23)c(Cl)cc1Cl	UniProtKB P32298	%	92.4
CN(C)c1ccc(/C=C2\C(=O)Nc3ccccc32)cc1	UniProtKB P32298	%	103
O=C(c1cc2cc(O)ccc2[nH]1)c1cc2cc(O)ccc2[nH]1	UniProtKB P32298	%	103
O=C1Nc2ccc(Br)cc2/C1=C\c1cc2c([nH]1)CCCC2	UniProtKB P32298	%	101
COc1cc2ncnc(Nc3ccc(OCc4ccccc4)cc3)c2cc1OC	UniProtKB P32298	%	106
COc1ccc(C(=O)Nc2sc3c(c2C(N)=O)CCCC3)cc1OC	UniProtKB P32298	%	95.1
CN(C)CCCn1cc(C2=C(c3c[nH]c4ccccc34)C(=O)NC2=O)c2ccccc21	UniProtKB P32298	%	84.5
O=C1c2ccccc2-c2nc3nnnn3nc21	UniProtKB P32298	%	68.4
CO[C@@H]1[C@H](N(C)C(=O)c2ccccc2)C[C@H]2O[C@]1(C)n1c3ccccc3c3c4c(c5c6ccccc6n2c5c31)C(=O)NC4	UniProtKB P32298	%	94.4
O=C1NC(=O)c2c1c1c3ccccc3[nH]c1n1cncc21	UniProtKB P32298	%	101
CC(C)(C)c1cc(C=C(C#N)C#N)cc(Br)c1O	UniProtKB P32298	%	101
Fc1ccc(-c2nc3n(c2-c2ccncc2)CCS3)cc1	UniProtKB P32298	%	95.7
COc1ccc2c(c1)/C(=C/c1cnc[nH]1)C(O)=N2	UniProtKB P32298	%	93.6
Cc1cncc2cccc(S(=O)(=O)N3CCCN(C(=O)CN)C[C@H]3C)c12	UniProtKB P32298	%	94
O=C1C(Cl)=C(N2C(=O)CCC2=O)C(=O)c2ccccc21	UniProtKB P32298	%	97.6
Cc1cccc(-c2nc(C(C)(C)C)[nH]c2-c2ccc3c(c2)OCO3)n1	UniProtKB P32298	%	101
Ic1cccc(CSc2nnc(-c3ccncc3)o2)c1	UniProtKB P32298	%	99.9
C[C@@H]1CCN(C(=O)CC#N)C[C@@H]1N(C)c1ncnc2[nH]ccc12	UniProtKB P32298	%	93.5
Cn1c2ccccc2c2c3c(c4c5ccccc5n(CCC#N)c4c21)CNC3=O	UniProtKB P32298	%	75.1
NC(=O)c1cccc(-c2cc(Nc3ccc(OC(F)(F)F)cc3)ncn2)c1	UniProtKB P32298	%	94.8

###

Biological target: IRAK1 (human)
Test: radiometric filter-binding kinase assay, Kinase HotSpot
Conditions: compound 0.5 µM; ATP 10 µM
residual activity values for the compounds below.

smiles	assayed.system	residual activity (%)
O=C(c1cc2cc(O)ccc2[nH]1)c1cc2cc(O)ccc2[nH]1	IRAK1 (human)	98.1
Ic1cccc(CSc2nnc(-c3ccncc3)o2)c1	IRAK1 (human)	121
COc1ccc(S(=O)(=O)N(CCO)c2ccccc2CN(C)C/C=C/c2ccc(Cl)cc2)cc1	IRAK1 (human)	98
COc1ccc2c(c1)c(C1=C(c3c[nH]c4ccccc34)C(=O)NC1=O)cn2CCCN(C)C	IRAK1 (human)	89
CN(C)CCCn1cc(C2=C(c3c[nH]c4ccccc34)C(=O)NC2=O)c2ccccc21	IRAK1 (human)	91.1
C[C@@H]1CCN(C(=O)CC#N)C[C@@H]1N(C)c1ncnc2[nH]ccc12	IRAK1 (human)	93.9
Cc1cccc(-c2nc(C(C)(C)C)[nH]c2-c2ccc3c(c2)OCO3)n1	IRAK1 (human)	118
O=C1Nc2ccc(Br)cc2/C1=C\c1cc2c([nH]1)CCCC2	IRAK1 (human)	97
N#Cc1c[nH]c2c[nH]/c(=N\Cc3cccnc3)cc2/c1=N\c1ccc(F)c(Cl)c1	IRAK1 (human)	114
Cc1cncc2cccc(S(=O)(=O)N3CCCN(C(=O)CN)C[C@H]3C)c12	IRAK1 (human)	135

This collection of values is drawn from the kinase profiling compilation of Christmann-Franck et al. (2016).
